assay: qHTS assay for small molecule disruptors of the mitochondrial membrane potential (AID 720635); conditions: HepG2 mitochondrial membrane potential, Mito-MPS dye ratio; series mostly up to 83.2 µM
Results filed as inconclusive are left out. The source made the active and inactive calls. The call rests on the fitted dose curve; in most records, active means well fitted inhibition curve with a large enough effect in the signal ratio in the repeat runs; inconclusive means weak or mixed curves, or effect the other way; inactive means flat fitted curve, though single readings scatter; the % refers to the signal ratio.
Outcomes: active, inactive

compound	group_label
CC(C)Cc1ccc(CC(=O)O)cc1	inactive
CC(C)(C)S	inactive
COc1ccc(C2C(=O)c3ccccc3C2=O)cc1	inactive
COc1ccc(-n2nc(C(F)F)cc2-c2ccc(S(C)=O)cc2)cc1 (configuration not stated)	inactive
O=C1OC[C@H](Cc2cccc(O)c2)[C@H]1Cc1cccc(O)c1	active
O=C(NS(=O)(=O)/C=C/c1ccccc1)c1ccc(F)cc1Cl	active
CC1=C2[C@@H]([C@H](C)CC[C@H]2/C=C(\C)C(=O)O)[C@H](O)C1	inactive
O=C1c2ccccc2C(=O)c2c(O)ccc(O)c21	active
C[C@@H]1C[C@H]2[C@@H]3CCC4=CC(=O)C=C[C@]4(C)[C@@]3(F)[C@@H](O)C[C@]2(C)[C@@]1(O)C(=O)COP(=O)(O)O	inactive
O=C(c1ccccc1)C1CCC1	inactive
CC(C)(C(=O)c1cccnc1)c1cccnc1	inactive
CC(=O)OCCC(C)CC(C)(C)C (configuration not stated)	inactive
